- experiment_notes: Half life in Sprague-Dawley rat at 1 mg/kg, iv
- Assay type: ADME, organism-based
- Set-up: dose 1 mg/kg, route intravenous
- details: in vivo
recorded_endpoint: half-life (h)
Could you give me the number in h? Just the number is fine.

Per the record, CN(c1ccccc1-c1cc(Cl)c2cnc(Nc3ccc(C4CCN(CC(N)=O)CC4)cc3)nn12)S(C)(=O)=O has half-life of 1

====

- tested_system: Tyrosine-protein kinase JAK2 (Homo sapiens, UniProt O60674)
- Sequence (O60674 whole entry): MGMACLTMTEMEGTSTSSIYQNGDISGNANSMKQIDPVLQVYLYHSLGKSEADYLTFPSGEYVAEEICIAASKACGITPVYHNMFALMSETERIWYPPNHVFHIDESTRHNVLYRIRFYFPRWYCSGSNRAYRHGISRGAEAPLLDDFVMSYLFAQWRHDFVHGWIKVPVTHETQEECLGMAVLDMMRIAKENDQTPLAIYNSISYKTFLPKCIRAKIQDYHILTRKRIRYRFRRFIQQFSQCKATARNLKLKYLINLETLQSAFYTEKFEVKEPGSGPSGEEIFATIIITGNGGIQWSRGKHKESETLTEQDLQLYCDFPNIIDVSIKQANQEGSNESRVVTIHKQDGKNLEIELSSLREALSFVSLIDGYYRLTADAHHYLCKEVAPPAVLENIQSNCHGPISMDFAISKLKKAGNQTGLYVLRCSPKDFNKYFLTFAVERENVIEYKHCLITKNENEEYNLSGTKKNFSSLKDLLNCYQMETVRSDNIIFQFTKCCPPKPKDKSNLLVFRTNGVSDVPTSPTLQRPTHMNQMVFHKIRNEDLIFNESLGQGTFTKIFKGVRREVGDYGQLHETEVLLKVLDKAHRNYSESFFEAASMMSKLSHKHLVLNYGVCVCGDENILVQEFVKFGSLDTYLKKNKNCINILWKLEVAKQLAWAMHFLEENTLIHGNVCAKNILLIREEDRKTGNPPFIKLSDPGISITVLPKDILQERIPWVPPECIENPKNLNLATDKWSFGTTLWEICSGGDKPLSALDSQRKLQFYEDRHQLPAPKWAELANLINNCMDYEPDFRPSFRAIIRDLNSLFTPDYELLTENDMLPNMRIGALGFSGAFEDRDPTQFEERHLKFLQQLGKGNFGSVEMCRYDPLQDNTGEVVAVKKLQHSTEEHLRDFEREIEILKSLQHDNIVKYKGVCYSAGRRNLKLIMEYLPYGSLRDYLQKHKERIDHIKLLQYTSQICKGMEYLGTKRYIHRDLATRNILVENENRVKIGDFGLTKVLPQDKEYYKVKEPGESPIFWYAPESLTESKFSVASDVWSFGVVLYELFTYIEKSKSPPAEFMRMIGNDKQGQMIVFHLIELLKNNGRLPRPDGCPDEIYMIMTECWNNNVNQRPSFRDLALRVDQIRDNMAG
- experiment_notes: Inhibition of human recombinant JAK2 expressed in baculovirus expression system after 20 mins by time resolved fluorescence assay
pIC50: −log10 of the molar value.
Class Y: pIC50 at least 8. Class N: pIC50 below 8.

Examples with answers:
> print(dat)
                                chem.smiles                             tested.system  class.assignment
1  CN(c1ccccc1-c1cc(Cl)c2cnc(Nc3ccc(C4CCN(CC(N)=O)CC4)cc3)nn12)S(C)(=O)=O  Tyrosine-protein kinase JAK2 (Homo sapiens, UniProt O60674)                 Y
2  NC(=O)CN1CCC(c2ccc(Nc3ncc4ccc(-c5ncccn5)n4n3)cc2)CC1  Tyrosine-protein kinase JAK2 (Homo sapiens, UniProt O60674)                 N
3  CC(C)(C)NS(=O)(=O)c1cccc(-c2ccc3cnc(Nc4ccc(C5CCN(CC(N)=O)CC5)cc4)nn23)c1  Tyrosine-protein kinase JAK2 (Homo sapiens, UniProt O60674)                 Y
4  CS(=O)(=O)c1ccc(-c2ccc3cnc(Nc4ccc(C5CCN(CC(N)=O)CC5)cc4)nn23)cc1  Tyrosine-protein kinase JAK2 (Homo sapiens, UniProt O60674)                 Y
5  NC(=O)CN1CCC(c2ccc(Nc3ncc4ccc(-c5cccc(CO)c5)n4n3)cc2)CC1  Tyrosine-protein kinase JAK2 (Homo sapiens, UniProt O60674)                 Y

Does the molecule CN(c1ncccc1-c1ccc2cnc(Nc3ccc(C4CCN(CC(N)=O)CC4)cc3)nn12)S(C)(=O)=O have recorded pIC50 that is 8 or more?
Y

====

- tested_system: Tyrosine-protein kinase JAK2 (Homo sapiens, UniProt O60674)
- experiment_notes: Inhibition of human recombinant JAK2 expressed in baculovirus expression system after 20 mins by time resolved fluorescence assay
recorded_endpoint: log10 of IC50 (log10 of the value in nM)
The figures below represent log10 of IC50, where IC50 is stated in nM.

Illustrative cases are given below, each with its answer.
> print(dat)
                                chem.smiles                             tested.system  recorded.endpoint  measured.value
1  CS(=O)(=O)c1cccc(-c2ccc3cnc(Nc4ccc(C5CCN(CC(N)=O)CC5)cc4)nn23)c1  Tyrosine-protein kinase JAK2 (Homo sapiens, UniProt O60674)      log10 of IC50           -0.28
2  COc1ccc(-c2ccc3cnc(Nc4ccc(C5CCN(CC(N)=O)CC5)cc4)nn23)cn1  Tyrosine-protein kinase JAK2 (Homo sapiens, UniProt O60674)      log10 of IC50           -0.11
3  COc1ccccc1-c1ccc2cnc(Nc3ccc(C4CCN(CC(N)=O)CC4)cc3)nn12  Tyrosine-protein kinase JAK2 (Homo sapiens, UniProt O60674)      log10 of IC50           -0.22
4  CN(C)Cc1ccc(-c2ccc3cnc(Nc4ccc(C5CCN(CC(N)=O)CC5)cc4)nn23)cc1  Tyrosine-protein kinase JAK2 (Homo sapiens, UniProt O60674)      log10 of IC50            3.46

Record summary for COc1cc(C2CCN(CC(N)=O)CC2)ccc1Nc1ncc2ccc(-c3ccccc3OC)n2n1 : reported log10 of IC50 = 2.40

The value of log10 of IC50 measured for the compound CN(c1cccc(-c2ccc3cnc(Nc4ccc(C5CCN(CC(N)=O)CC5)cc4)nn23)c1)S(C)(=O)=O turned out to be -1.05

Lab note: measured log10 of IC50 of COc1cc(Nc2ncc3ccc(-c4ccccc4)n3n2)cc(OC)c1OC was -0.70

log10 of IC50 reported for this compound CN(c1ccccc1-c1ccc2cnc(Nc3ccc(C4CCN(CC(N)=O)CC4)cc3)nn12)S(C)(=O)=O : 0.30

// log10 of IC50 lookup, compound = CS(=O)(=O)Nc1cccc(-c2ccc3cnc(Nc4ccc(C5CCN(CC(N)=O)CC5)cc4)nn23)c1 , result: -0.66

Measured log10 of IC50 of COc1cccnc1-c1ccc2cnc(Nc3ccc(C4CCN(CC(N)=O)CC4)cc3)nn12 : 1.20
